- Test system: PC-3 prostate
- PROCEDURE_TEXT: NCI-60 one-dose screen, 48 h (100 = growth as untreated, 0 = no growth, -100 = all killed)
- CONDITION_INFO: 10 µM unless noted
The panel holds about 83,000 compounds, 20% with a hit somewhere; the sample as a whole holds those more often.

{"columns": ["COMPOUND", "growth / %"],
 "data": [
  ["Fc1ccc(-c2cc3nc(C(Cl)Cl)nc(-c4ccco4)n3n2)cc1", -19.2],
  ["COCCNc1ccc2ncc(C#Cc3cncc(C(=O)Nc4ccc(CN5CCN(C)CC5)c(C(F)(F)F)c4)c3)n2n1", -25.3],
  ["N#Cc1cccc(/C(N)=N/C(N)=N/c2nc3ccccc3s2)c1", 17.7],
  ["C#CCOC(=O)[C@@H]1CCCN1CC#C", 51.2],
  ["CC(=O)c1ccc(Nc2nc(SCC(C)C)nc(-c3ccccc3)c2C#N)cc1", 104],
  ["CC(C)(C)n1cc(-c2ccnc(NCCCNS(=O)(=O)c3cccc(F)c3)n2)c(-c2ccc(Cl)c(O)c2)n1", 67.5],
  ["C=C(C=O)[C@@H]1CC[C@]2(COC(C)=O)CC[C@]3(C)C(CC[C@@H]4[C@@]5(C)CC[C@H](OC(C)=O)C(C)(C)[C@@H]5CC[C@]43C)[C@@H]12 (stereo partly drawn)", 6.79],
  ["C#CCn1cccc1CNc1ccc(OC)cc1", -93.3],
  ["CC(=O)c1cc(C(=O)N2c3ccccc3Sc3ccccc32)n2ccc3ccccc3c12", 37.6],
  ["N#Cc1c(NC(=O)c2cccc(C(F)(F)F)c2F)sc2c1CCC(=O)C2", -43.9],
  ["CCOC(=O)c1c(Nc2ccccc2)nn2c(-c3ccccc3)ccnc12", 92.8],
  ["C[C@@H]1C[C@H]2C(=O)O[C@@H](C)C(NC(=O)[C@H](Cc3cc(F)cc(F)c3)NC(=O)Nc3ccc(C4CC4)cc3F)C(=O)N3CCC[C@H]3C(=O)N3CCCC[C@H]3C(=O)N[C@@H](CO)C(=O)N2C1 (stereo partly drawn)", 11.5],
  ["N#Cc1cnc2ccc(-c3cnc(N)nc3)cc2c1N1CCc2cc(F)c(Cl)cc21", 2.78],
  ["CCCCCc1ccc(S(=O)(=O)Nc2cccc(-c3csc(NC(=O)CNCCN(C)C)n3)c2)cc1", 64.7],
  ["Cc1cccc2c3c(sc12)C(c1ccc(Cl)cc1)c1c(nc(CC(=O)Nc2ccccc2)[nH]c1=O)O3 (stereo not drawn)", 43.3],
  ["COc1ccccc1-n1cc(C#N)c(N)c1C(=O)c1ccc(C)cc1", 74.5],
  ["COC(=O)c1[nH]nc2c1C1(C(=O)c3cccc4cccc1c34)C(C#N)=C(N)O2 (stereo not drawn)", 83.9],
  ["Cc1ccc(-n2cc(/C=C/C(=O)c3ccc(O)cc3)c(-c3ccc(S(C)(=O)=O)cc3)n2)cc1", 69.9]
]}

----------
- Test system: IGROV1 ovarian
- PROCEDURE_TEXT: NCI-60 one-dose screen, 48 h
- CONDITION_INFO: 10 µM unless noted
The panel holds about 83,000 compounds, 20% with a hit somewhere; the sample as a whole holds those more often. The source made the active and inactive calls. Rule for the calls: active = growth percent below 10; inactive = the rest.
Outcome codes: active, inactive

{"columns": ["MOLECULE", "ASSIGNED_CATEGORY"],
 "data": [
  ["CCN1CCN(Cc2cn(-c3ccc(S(N)(=O)=O)cc3)nn2)CC1", "inactive"],
  ["Cc1ccc2sc3c(c2c1)OC(N)=C(C#N)C3c1ccc(Cl)cc1 (centres undefined)", "inactive"],
  ["O=C1[C@H]2Cc3c([nH]c4ccccc34)[C@@H](c3ccc(Br)cc3)N2C(=O)CN1C1CCN(CC2CCCCC2)CC1", "active"],
  ["CCNC(=O)N1CCc2cc(OC)c(OCCc3ccc(OC)cc3)cc2C1c1ccc(Cl)cc1C (centres undefined)", "inactive"],
  ["O=c1[nH]c2ccccc2cc1CSc1ccccc1Nc1nccc(-c2ccc(Cl)cc2)n1", "inactive"],
  ["C#C[C@]1(O)CC[C@H]2[C@@H]3CC=C4c5sc(-c6ccc7c(c6)OCO7)nc5CC[C@]4(C)[C@H]3CC[C@@]21C", "inactive"],
  ["O=C(Nc1ccc(N=Cc2c(O)[nH]c3ccccc23)cc1)Nc1nccs1", "inactive"],
  ["N#Cc1cn(Cc2ccc(Cl)cc2Cl)c(C(=O)c2ccc(Br)cc2)c1N", "inactive"],
  ["Cc1ccc2sc3c(c2c1)OC(N)=C(C#N)C3c1cccc(F)c1 (centres undefined)", "inactive"]
]}
